Where do the numbers come from? From paper PMC2666446.

Molecular target: T1, MutS (Escherichia coli, UniProt P23909 1-853)
T1 sequence: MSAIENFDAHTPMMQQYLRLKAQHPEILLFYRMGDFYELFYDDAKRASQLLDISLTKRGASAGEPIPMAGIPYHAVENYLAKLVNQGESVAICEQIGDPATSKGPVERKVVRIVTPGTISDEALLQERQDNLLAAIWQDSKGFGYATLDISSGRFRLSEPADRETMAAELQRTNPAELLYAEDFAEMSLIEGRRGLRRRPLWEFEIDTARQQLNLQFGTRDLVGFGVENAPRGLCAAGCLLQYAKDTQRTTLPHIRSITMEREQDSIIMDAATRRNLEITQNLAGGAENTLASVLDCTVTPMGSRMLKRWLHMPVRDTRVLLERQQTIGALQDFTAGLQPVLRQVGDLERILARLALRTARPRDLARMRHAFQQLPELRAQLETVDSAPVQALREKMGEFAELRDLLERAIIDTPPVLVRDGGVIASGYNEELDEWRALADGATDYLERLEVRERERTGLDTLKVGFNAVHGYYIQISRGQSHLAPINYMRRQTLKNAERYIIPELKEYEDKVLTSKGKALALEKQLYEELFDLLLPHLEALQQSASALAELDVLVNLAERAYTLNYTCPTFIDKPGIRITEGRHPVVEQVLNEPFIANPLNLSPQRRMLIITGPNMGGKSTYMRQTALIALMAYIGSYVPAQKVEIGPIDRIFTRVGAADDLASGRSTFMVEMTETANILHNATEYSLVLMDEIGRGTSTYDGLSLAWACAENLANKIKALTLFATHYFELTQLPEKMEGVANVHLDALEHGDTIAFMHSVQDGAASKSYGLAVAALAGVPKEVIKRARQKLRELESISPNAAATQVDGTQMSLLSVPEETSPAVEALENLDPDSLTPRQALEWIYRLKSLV
Assay: FRET equilibrium titration
pKd: −log10 of the molar value.
# binarize pKd: threshold 7 inclusive, high side 1, low side 0

>>> class_label("30-AG (dsDNA) DNA 1: AACTGCCAAGCACCAGTGTCAGCGTCGTAT DNA 2: ATACGACGCTGACACTGGTGCGTGGCAGTT")
0
>>> class_label("30-1ΔT (dsDNA) DNA 1: AACTGCCAGGCACCAGTGTCAGCGTCGTAT DNA 2: ATACGACGCTGACACTGGTGCCTTGGCAGTT")
1
>>> class_label("30-CC (dsDNA) DNA 1: AACTGCCACGCACCAGTGTCAGCGTCGTAT DNA 2: ATACGACGCTGACACTGGTGCCTGGCAGTT")
0
>>> class_label("30-TT (dsDNA) DNA 1: AACTGCCATGCACCAGTGTCAGCGTCGTAT DNA 2: ATACGACGCTGACACTGGTGCTTGGCAGTT")
0
